test: recombinant UMI read abundance after kanamycin selection (control-corrected) (log10(CPM+1)); higher = more efficient recombination; extreme values may be limits of the assay; sequences stand for … in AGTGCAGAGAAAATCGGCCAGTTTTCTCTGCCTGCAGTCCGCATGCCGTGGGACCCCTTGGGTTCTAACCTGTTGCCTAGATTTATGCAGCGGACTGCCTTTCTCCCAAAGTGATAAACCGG…AGGTTGGTTTCACT; site = the 11-nt donor;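 also: IS621 bridge recombinase in Escherichia coli cells against a fixed T5 target plasmid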
The following sequences are shown together with reported recombinant UMI read abundance (log10) values.
Give only the figure.

GTTGTCGCATGGACCGGTTTTCCCGGTAATCCGTATTTGCG (site GTTGTCGCTCG) : 0.974

[Q] Item under review: ACCTCAGCATGGACCGGTTTTCCCGGTAATCCGTATTTGGG (site ATCTCAGCTCC) . Reported recombinant UMI read abundance (log10)?
[A] 0.0291

[Q] I'd like to know its recombinant UMI read abundance (log10). The sequence in question is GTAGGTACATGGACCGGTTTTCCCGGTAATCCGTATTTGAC (site GTTGGTACTGT)
[A] 1.96

[Q] Which measured recombinant UMI read abundance (log10) value corresponds to AACTGGACATGGACCGGTTTTCCCGGTAATCCGTATTTGGG (site AACTGGACTCC) ?
[A] 0.0254

[Q] Quick one: recombinant UMI read abundance (log10) of CGTGAAACATGGACCGGTTTTCCCGGTAATCCGTATTTGTT (site CGTGGAACTAA) ?
[A] 0

[Q] Request the reported recombinant UMI read abundance (log10) associated with TACAATACATGGACCGGTTTTCCCGGTAATCCGTATTTGCA (site TATAATACTTG)
[A] 0

[Q] What value of recombinant UMI read abundance (log10) has been recorded for this entry: TGAAAGACATGGACCGGTTTTCCCGGTAATCCGTATTTGCA (site TGAAAGACTTG)
[A] 2.45

[Q] // lookup recombinant UMI read abundance (log10) for AAATTCCCATGGACCGGTTTTCCCGGTAATCCGTATTTGCT (site AAATTCCCTAG)
[A] 1.37

[Q] What does the record list as recombinant UMI read abundance (log10) for TATTGGGCATGGACCGGTTTTCCCGGTAATCCGTATTTGTG (site TATTAGGCTCA) ?
[A] 0.0242
